- experiment description: self-splicing fitness, log relative to wild type (ln ratio); higher = more splicing; Tetrahymena group I intron in knt gene, E. coli kanamycin selection, DiMSum; sequences stand for … in CUCUCU…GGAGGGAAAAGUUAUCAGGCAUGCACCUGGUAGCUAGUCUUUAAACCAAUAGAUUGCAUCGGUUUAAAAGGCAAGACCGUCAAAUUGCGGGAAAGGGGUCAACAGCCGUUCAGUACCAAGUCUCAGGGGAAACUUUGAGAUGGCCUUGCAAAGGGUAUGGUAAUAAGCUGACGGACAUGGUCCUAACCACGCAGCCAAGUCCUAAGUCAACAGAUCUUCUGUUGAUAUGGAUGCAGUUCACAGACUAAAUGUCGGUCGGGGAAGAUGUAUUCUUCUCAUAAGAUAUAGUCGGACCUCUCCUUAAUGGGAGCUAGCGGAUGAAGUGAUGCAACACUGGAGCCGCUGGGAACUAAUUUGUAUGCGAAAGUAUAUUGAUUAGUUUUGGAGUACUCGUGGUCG;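 note: selection with 25 µg/mL kanamycin versus none on LB agar overnight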
- run conditions: 30 °C
Parameter self-splicing fitness (ln): see the listing below.

seq text	self-splicing fitness (ln)
AGCAAGCAAUAUUACGGAGU	-2.98
UCUCAGCAAUAUUACGACAA	-1.98
GCGGAGCAAUAUUACGAUCU	-1.97

---

- experiment description: self-splicing fitness, log relative to wild type (ln ratio); higher = more splicing; Tetrahymena group I intron in knt gene, E. coli kanamycin selection, DiMSum; sequences stand for … in CUCUCU…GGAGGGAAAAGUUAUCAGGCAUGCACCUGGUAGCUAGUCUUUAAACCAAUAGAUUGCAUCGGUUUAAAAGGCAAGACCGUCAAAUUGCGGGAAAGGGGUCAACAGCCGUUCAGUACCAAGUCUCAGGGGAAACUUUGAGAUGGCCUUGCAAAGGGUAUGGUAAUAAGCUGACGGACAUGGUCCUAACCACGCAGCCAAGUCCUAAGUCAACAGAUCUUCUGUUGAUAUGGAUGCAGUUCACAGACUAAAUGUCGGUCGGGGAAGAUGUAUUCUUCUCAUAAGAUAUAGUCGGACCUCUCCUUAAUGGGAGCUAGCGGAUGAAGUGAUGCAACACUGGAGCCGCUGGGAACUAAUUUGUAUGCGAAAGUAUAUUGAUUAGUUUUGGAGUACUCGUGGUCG
- run conditions: 30 °C
Decide using self-splicing fitness (ln): a value greater than or equal to -4 is Condition met, a smaller one is Condition not met.

seq text	class assignment
UCCGAGCAAUAUUACGCGCA	Condition met
CUCCAGCAAUAUUACGAUCU	Condition not met
AUGAAGCAAUAUUACGACGU	Condition met
AAAGAGCAAUAUUACGGAUC	Condition met
CUCCAGCAAUAUUACGUAAU	Condition not met
CGCCAGCAAUAUUACGUCAC	Condition met
CGCGAGCAAUAUUACGAACU	Condition met

---

- experiment description: self-splicing fitness, log relative to wild type (ln ratio); higher = more splicing; Tetrahymena group I intron in knt gene, E. coli kanamycin selection, DiMSum; sequences stand for … in CUCUCU…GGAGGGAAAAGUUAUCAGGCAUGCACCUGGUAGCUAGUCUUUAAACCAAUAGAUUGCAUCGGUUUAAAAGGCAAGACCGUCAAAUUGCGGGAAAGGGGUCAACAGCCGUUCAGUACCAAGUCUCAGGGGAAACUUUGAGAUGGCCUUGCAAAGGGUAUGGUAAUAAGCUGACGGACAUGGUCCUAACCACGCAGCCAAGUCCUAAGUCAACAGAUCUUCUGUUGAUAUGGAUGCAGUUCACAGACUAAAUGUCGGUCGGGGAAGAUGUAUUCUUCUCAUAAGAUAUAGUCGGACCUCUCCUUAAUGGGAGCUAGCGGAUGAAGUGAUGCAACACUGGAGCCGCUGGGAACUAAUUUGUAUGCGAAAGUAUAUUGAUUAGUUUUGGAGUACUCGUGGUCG
- run conditions: 30 °C
Parameter self-splicing fitness (ln): see the listing below.
measured quantity: self-splicing fitness (ln)

seq text	measured quantity	measured
UCAUAGCAAUAUUACGGGUC	self-splicing fitness (ln)	-2.94
GCAGAGCAAUAUUACGUUAC	self-splicing fitness (ln)	-2.97
UCACAGCAAUAUUACGCUAG	self-splicing fitness (ln)	-2.91
UUGGAGCAAUAUUACGUAUC	self-splicing fitness (ln)	-2.95
AUUUAGCAAUAUUACGGUCG	self-splicing fitness (ln)	-1.98
UGGGAGCAAUAUUACGGAAA	self-splicing fitness (ln)	-2.04
